target.or.test.system: T1, human IL13 R130Q (human, UniProt P35225 35-146, biotinylated (sites not given))
T1 construct: Peprotech; also called IL13R13Q; R111Q
T1 sequence (P35225 35-146 limits assumed, stated change not applied): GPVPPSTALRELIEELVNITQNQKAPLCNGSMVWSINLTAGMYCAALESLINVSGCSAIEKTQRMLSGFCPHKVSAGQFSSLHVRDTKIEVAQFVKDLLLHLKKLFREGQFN
protocol: IL13Ra2 binding inhibition; repeats Table 17
Measured IC50, listed per entry.
// return numeric value only (unit: nM, not printed)

Here's what some known entries look like.
- binder: "C01_6G9_V1_C06_28E5_V1 (designed binder, bispecific IL13/IL4 ankyrin repeat protein with (GGGGS)4 linker; also called bispecific AR protein) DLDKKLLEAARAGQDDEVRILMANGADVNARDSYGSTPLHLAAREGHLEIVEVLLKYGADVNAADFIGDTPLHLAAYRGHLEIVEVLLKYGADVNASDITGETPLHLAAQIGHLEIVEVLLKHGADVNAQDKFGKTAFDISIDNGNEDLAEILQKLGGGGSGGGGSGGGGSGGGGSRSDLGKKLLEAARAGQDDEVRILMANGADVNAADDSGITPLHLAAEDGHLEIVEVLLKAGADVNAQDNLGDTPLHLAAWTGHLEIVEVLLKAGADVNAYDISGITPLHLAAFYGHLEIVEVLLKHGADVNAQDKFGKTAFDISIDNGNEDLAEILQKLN"
  measured.number: 0.032
- binder: "C01_6G9_V1_C06_44C12_V2 (designed binder, bispecific IL13/IL4 ankyrin repeat protein with (GGGGS)4 linker; also called bispecific AR protein) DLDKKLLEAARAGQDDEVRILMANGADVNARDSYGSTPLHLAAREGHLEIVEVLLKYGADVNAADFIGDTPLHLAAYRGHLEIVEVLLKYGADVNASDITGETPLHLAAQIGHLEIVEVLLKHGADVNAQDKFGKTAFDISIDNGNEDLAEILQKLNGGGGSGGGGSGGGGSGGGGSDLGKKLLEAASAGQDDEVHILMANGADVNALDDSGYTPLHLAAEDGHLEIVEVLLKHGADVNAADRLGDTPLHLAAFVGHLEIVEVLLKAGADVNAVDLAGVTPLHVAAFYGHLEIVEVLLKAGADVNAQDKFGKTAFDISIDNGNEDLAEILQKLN"
  measured.number: 0.023
- binder: "C06_44C12_V2_C01_6G9_V1 (designed binder, bispecific IL4/IL13 ankyrin repeat protein with (GGGGS)4 linker; also called bispecific AR protein) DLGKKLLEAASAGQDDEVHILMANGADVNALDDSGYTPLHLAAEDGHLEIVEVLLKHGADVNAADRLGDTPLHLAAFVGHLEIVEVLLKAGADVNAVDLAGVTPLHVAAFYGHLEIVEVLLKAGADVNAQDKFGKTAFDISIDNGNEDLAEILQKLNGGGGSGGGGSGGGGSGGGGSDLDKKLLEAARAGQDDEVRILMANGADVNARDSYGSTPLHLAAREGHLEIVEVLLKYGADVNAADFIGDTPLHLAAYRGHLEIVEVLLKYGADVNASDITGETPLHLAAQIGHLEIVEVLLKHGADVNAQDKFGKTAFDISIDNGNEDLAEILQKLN"
  measured.number: 0.028

INPUT: Field request: IC50 | item: C06_28E5_V1_C01_6G9_V1 (designed binder, bispecific IL4/IL13 ankyrin repeat protein with (GGGGS)4 linker; also called bispecific AR protein) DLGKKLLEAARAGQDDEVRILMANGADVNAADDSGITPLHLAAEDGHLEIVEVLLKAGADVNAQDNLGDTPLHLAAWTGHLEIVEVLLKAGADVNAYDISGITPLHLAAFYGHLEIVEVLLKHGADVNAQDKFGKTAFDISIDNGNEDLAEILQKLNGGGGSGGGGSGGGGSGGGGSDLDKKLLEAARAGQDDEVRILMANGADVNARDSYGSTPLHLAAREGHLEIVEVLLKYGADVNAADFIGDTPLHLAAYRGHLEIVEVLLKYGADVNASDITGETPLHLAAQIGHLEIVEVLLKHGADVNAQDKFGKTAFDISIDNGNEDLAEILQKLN
OUTPUT: 0.036

From: patent US20120277143A1
